B1: WDFY2 (parent)
chain: FWNFKQMWDSKKIGLRQHHCRKCG

Variants of: B1
Test: protein stability index of a GFP-peptide fusion (GPS, HEK-293T) (PSI 1-6); higher = more stable;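 further: lentivirally expressed fusions sorted by FACS into six bins by GFP to DsRed ratio, PSI derived from sequencing read proportions per bin multiplied by bin number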
Details: c terminus: a fixed tail appended
Quick reference for protein stability index among some variants

changes | protein stability index
I13N | 2.42
W2C | 2.19
K5Q | 2.4
I13F | 2.15
K5F | 1.38
D9N | 1.81
D9E | 2.3
C23K | 2.38
G24Q | 1.95
F1P | 2.99
F1N | 2.32

Hello, the source for this data is the supplement of paper PMC10567573, in case you need it.
